# studySystem: cathepsin H (Homo sapiens)
# Construct: purchased R&D Systems 75116-CY-010
# assayName: Specificity of inhibitors: cathepsin H (Arg-AMC substrate)
# Format: biochemical
# conditionDetails: cathepsin H, pH 4.6
The molecules listed here are annotated with their IC50.

| molecule | IC50 |
| --- | --- |
| Cc1cccc(C)c1C(=O)OCC(=O)C(CCCCN)NC(=O)C(CCC(=O)O)NC(=O)OCc1ccccc1 (centres unmarked) | > 16 µM |

# get_value(readout= IC50, system= cathepsin H (Homo sapiens)) for Cc1cccc(C)c1C(=O)OCC(=O)C(CCCCN)NC(=O)C(CCCNC(=N)N)NC(=O)OCc1ccccc1 (centres unmarked)
> 16 µM

----------
# studySystem: cathepsin L (Homo sapiens, UniProt P07711)
# Sequence (P07711 114-333): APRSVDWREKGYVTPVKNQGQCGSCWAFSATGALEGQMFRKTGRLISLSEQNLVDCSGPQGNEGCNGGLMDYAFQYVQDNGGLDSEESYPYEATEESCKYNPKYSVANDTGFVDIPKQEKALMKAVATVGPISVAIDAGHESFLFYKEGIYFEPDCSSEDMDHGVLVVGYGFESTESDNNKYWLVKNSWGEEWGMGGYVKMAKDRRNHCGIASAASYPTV
pIC50: −log10 of the molar value.
metric: pIC50

Which value of pIC50 has been reported for Cc1cccc(C)c1C(=O)OCC(=O)C(CCCCN)NC(=O)C(CCCNC(=N)N)NC(=O)OCc1ccccc1 (stereo not shown) in the records?
< 4.80

----------
# studySystem: cathepsin K (Homo sapiens, UniProt P43235)
# Construct: purchased Abcam ab157067
# Sequence (P43235 115-329): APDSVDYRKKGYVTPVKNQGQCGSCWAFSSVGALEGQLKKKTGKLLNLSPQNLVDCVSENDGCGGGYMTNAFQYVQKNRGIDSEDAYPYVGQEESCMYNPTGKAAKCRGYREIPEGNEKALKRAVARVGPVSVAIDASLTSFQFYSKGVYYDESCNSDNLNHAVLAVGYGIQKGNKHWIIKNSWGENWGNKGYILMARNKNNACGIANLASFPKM
# assayName: Specificity of inhibitors: cathepsin K (Z-Phe-Arg-AMC substrate)
# Type: biochemical
# conditionDetails: cathepsin K, pH 4.6
# Method: Specificity of inhibitors for other cysteine cathepsin proteases. The effects of Z-Arg-Lys-AOMK and Z-Glu-Lys-AOMK on cathepsin V, L, K, S, X, H and C activities were assessed. […] For all assays containing peptide-AMC substrates the fluorescent microplate reader settings were the same as outlined above for cathepsin B. For the cathepsin X assay, the plate reader was set to excitation 320 nm, emission 400 nm, gain 105, top optics and read height 1 mm. […]
pIC50: −log10 of the molar value.
metric: pIC50

| molecule | val |
| --- | --- |
| Cc1cccc(C)c1C(=O)OCC(=O)C(CCCCN)NC(=O)C(CCCNC(=N)N)NC(=O)OCc1ccccc1 (centres unmarked) | < 4.80 |

I'd like to know its pIC50. The molecule in question is Cc1cccc(C)c1C(=O)OCC(=O)C(CCCCN)NC(=O)C(CCC(=O)O)NC(=O)OCc1ccccc1 (centres unmarked)
< 4.80

----------
# studySystem: cathepsin H (Homo sapiens, UniProt P09668)
# Construct: purchased R&D Systems 75116-CY-010
# Sequence (P09668 116-335 limits assumed, other chains not shown): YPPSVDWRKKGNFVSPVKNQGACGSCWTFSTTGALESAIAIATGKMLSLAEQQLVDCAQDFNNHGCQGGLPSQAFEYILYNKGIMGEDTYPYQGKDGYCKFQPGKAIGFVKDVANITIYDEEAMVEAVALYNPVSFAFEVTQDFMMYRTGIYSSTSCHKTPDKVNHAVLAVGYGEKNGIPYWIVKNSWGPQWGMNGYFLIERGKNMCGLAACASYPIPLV
# assayName: Specificity of inhibitors: cathepsin H (Arg-AMC substrate)
# Format: biochemical
# conditionDetails: cathepsin H, pH 7.2
pIC50: −log10 of the molar value.
Measured pIC50 accompanies every entry in the list below.

| compound | pIC50 |
| --- | --- |
| Cc1cccc(C)c1C(=O)OCC(=O)C(CCCCN)NC(=O)C(CCCNC(=N)N)NC(=O)OCc1ccccc1 (stereo not drawn) [Z-Arg-Lys-AOMK] | < 4.80 |

Here's the next entry for you.
Lookup: pIC50 / cathepsin H (Homo sapiens, UniProt P09668) / Cc1cccc(C)c1C(=O)OCC(=O)C(CCCCN)NC(=O)C(CCC(=O)O)NC(=O)OCc1ccccc1 (stereo not drawn) [Z-Glu-Lys-AOMK]
< 4.80

----------
# studySystem: cathepsin B (Homo sapiens, UniProt P07858)
# Construct: purchased R&D Systems 953-CY-010
# assayName: Cathepsin B inhibitor kinetic characterization, fluorogenic assay with Z-Phe-Arg-AMC
# Type: biochemical
# conditionDetails: cathepsin B, pH 7.2, irreversible inhibitor
pKi: −log10 of the molar value.
metric: pKi

I = Cc1cccc(C)c1C(=O)OCC(=O)C(CCCCN)NC(=O)C(CCCNC(=N)N)NC(=O)OCc1ccccc1 (centres unmarked)
II = Cc1cccc(C)c1C(=O)OCC(=O)C(CCCCN)NC(=O)C(CCC(=O)O)NC(=O)OCc1ccccc1 (centres unmarked)
Would you let me know which has the greater pKi value, I or II ? Indicate your choice by writing its label.
I
(I: 6.89, II: 5.64)

Sourced from patent US20240181068A1
